The origin of these recorded values is patent US4879370A.

system: GSH level in the liver and in the kidney; assay: GSH level in liver and kidney of starved mice, time course (Example 6); format: in vivo; settings: mice starved 24 hours, 10 mmol/kg i.p., 2 to 3 hours after the administration

compound	GSH level in the kidney
CCCCCCOC(=O)CNC(=O)[C@H](CS)NC(=O)CC[C@H](N)C(=O)O [GSH mono-n-hexyl ester]	substantial elevation
CC(C)COC(=O)CNC(=O)[C@H](CS)NC(=O)CC[C@H](N)C(=O)O [GSH monoisobutyl ester]	substantial elevation
CC(C)OC(=O)CNC(=O)[C@H](CS)NC(=O)CC[C@H](N)C(=O)O [GSH monoisopropyl ester]	substantial elevation
